Biological target: Trifunctional purine biosynthetic protein adenosine-3 (Mus musculus, UniProt Q64737)
Sequence (Q64737 whole entry): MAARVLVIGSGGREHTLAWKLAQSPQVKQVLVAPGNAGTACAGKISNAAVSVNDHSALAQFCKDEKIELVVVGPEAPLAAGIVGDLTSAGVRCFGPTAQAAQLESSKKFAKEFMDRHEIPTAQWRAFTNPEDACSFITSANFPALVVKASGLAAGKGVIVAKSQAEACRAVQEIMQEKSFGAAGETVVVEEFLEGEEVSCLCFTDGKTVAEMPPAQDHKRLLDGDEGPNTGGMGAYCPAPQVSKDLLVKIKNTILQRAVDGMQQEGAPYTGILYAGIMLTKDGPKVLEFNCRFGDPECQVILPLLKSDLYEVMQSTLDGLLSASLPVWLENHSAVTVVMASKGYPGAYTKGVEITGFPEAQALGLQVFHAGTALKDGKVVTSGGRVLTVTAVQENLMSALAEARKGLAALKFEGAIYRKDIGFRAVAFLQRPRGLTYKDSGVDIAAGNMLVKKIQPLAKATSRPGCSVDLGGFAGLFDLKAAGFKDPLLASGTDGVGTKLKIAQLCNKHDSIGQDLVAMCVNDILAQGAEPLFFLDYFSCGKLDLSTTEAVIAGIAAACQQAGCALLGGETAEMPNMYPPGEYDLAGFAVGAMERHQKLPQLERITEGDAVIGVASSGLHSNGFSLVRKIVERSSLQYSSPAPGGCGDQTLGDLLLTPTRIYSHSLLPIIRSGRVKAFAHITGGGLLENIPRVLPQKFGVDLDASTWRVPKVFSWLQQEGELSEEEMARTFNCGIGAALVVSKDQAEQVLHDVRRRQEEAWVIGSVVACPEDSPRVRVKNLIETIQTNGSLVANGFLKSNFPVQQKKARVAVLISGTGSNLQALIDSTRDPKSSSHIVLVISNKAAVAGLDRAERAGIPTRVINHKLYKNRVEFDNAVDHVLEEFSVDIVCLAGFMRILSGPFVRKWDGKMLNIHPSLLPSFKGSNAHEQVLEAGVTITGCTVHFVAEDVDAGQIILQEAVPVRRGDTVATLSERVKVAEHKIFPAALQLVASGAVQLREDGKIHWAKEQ
Assay: Inhibition of the GAR transformylase in L1210
pIC50: −log10 of the molar value.

compound	pIC50
Nc1nc2c(c(=O)[nH]1)NC(CCCc1ccc(C(=O)NC(CCC(=O)O)C(=O)O)cc1)CN2 (configuration not stated)	10.74

###

Test system: Enterococcus faecium
Assay: Inhibition of the growth of Streptococcus faecium
Format: functional, organism-based
pIC50: −log10 of the molar value.

compound	assayed.system	pIC50
CC(CC1=Nc2c(O)nc(N)nc2NC1)Cc1ccc(C(=O)NC(CCC(=O)O)C(=O)O)cc1 (stereo unspecified)	Enterococcus faecium	7.40
CN(Cc1cnc2nc(N)nc(N)c2n1)c1ccc(C(=O)N[C@@H](CCC(=O)O)C(=O)O)cc1 [METHOTREXATE]	Enterococcus faecium	9.05
CC(Cc1ccc(C(=O)NC(CCC(=O)O)C(=O)O)cc1)Cc1cnc2nc(N)nc(O)c2n1 (stereo unspecified)	Enterococcus faecium	6.60
Nc1nc(O)c2nc(CCCc3ccc(C(=O)NC(CCC(=O)O)C(=O)O)cc3)cnc2n1 (stereo unspecified)	Enterococcus faecium	6.92
Nc1nc2c(c(=O)[nH]1)NC(CCCc1ccc(C(=O)NC(CCC(=O)O)C(=O)O)cc1)CN2 (stereo unspecified)	Enterococcus faecium	7.52
CC(Cc1ccc(C(=O)NC(CCC(=O)O)C(=O)O)cc1)CC1CNc2nc(N)nc(O)c2N1 (stereo unspecified)	Enterococcus faecium	6.89

Sourced from ChEMBL document CHEMBL1124491
